- Tested on: SF-539 CNS
- ASSAY_DETAILS: NCI tumour cell line growth inhibition, 48 h
PARAMETER: TGI

RECORD_SMILES	TGI
CCC[CH2][Sn](=[O])[CH2]CCC	> 50 µM
O=C1Nc2c(Cl)cc(Cl)cc2/C1=N/N=C/c1ccco1	> 100 µM
CN1CCC2(CC1)SSC1(CCN(C)CC1)S2	> 100 µM

Would you kindly look at the next entry?
For reference, reported TGI for CCCCN(CC)C(=O)C(=O)Cc1nc2ccc(C(=O)c3ccccc3)cc2[nH]c1=O stands at > 100 µM

---

- Tested on: HOP-92 NSCLC
- ASSAY_DETAILS: NCI tumour cell line growth inhibition, 48 h
PARAMETER: GI50

Return reported GI50 values for all items listed beneath this line.
1. COc1cc(CCC[P+](c2ccccc2)(c2ccccc2)c2ccccc2)c(OC)c2c1OCO2
2. NC(=S)N/N=C/c1ccc(OC(=O)COc2cc(Cl)c(Cl)cc2Cl)cn1
3. CCOC(=O)C(=Cc1ccc(C#N)cc1)C(=O)OCC
4. Cc1c(Cn2c(C)nc3c(C(=O)O)cc(N4CCOCC4)cc32)cccc1C(F)(F)F

Out:
1. 1150 nM
2. 1540 nM
3. 1630 nM
4. 14100 nM

---

- System: NCI/ADR-RES ovarian
- ASSAY_DETAILS: NCI tumour cell line growth inhibition, 48 h
Assignment: determine reported GI50 for the given molecules.

MOLECULE	GI50
CCN1CCN(CCNc2nccc(-c3c(-c4ccc(F)c(O)c4)nc4occn34)n2)S1(=O)=O	3.01 µM

Return reported GI50 values for all items listed beneath this line.
1. Cc1ccc2c(C(C[N+](=O)[O-])c3ccccc3)c(-c3ccccc3)[nH]c2c1 (stereo not drawn)
2. Oc1ccccc1-c1nn(CNc2ccc(Cl)cc2)c(=S)o1

Out:
1. 14.2 µM
2. 18.9 µM

---

- Test system: DU-145 prostate
- ASSAY_DETAILS: NCI tumour cell line growth inhibition, 48 h
Where a SMILES comes first, the peptide text is derived from it. [ ]: non-standard residue; d: D form. pGlu = O=C1CC[CH](C(=O)O)N1
PARAMETER: TGI

# annotated cases, reported TGI shown
MOLECULE	RESULT
O=C(O)c1cccc(S(=O)(=O)NCCO)c1	> 100 µM
CC(NC(=O)C1CCC(=O)N1)C(=O)N1CCCC1C(N)=O (stereo not drawn) ([pGlu]-Ala-Pro-NH2; configuration not given here)	> 100 µM
CC(C)(C)c1cc(/C=C(\C#N)C2=NCCO2)cc(C(C)(C)C)c1O	> 40.9 µM
Cc1ccc(OCC2CO2)c(Br)c1 (stereo not given)	> 100 µM
O=S(=O)(N=C1C(Cl)=C(Cl)C(=NS(=O)(=O)c2ccccc2)C(Cl)=C1Cl)c1ccccc1	60.9 µM

Return reported TGI values for all items listed beneath this line.
1. CCSC[C@@H]1C[C@](O)(c2ccc(Cl)cc2)[C@@H](c2ccc(Cl)cc2)O1
2. CCOC(=O)C12CCC(=O)N1N(C)c1ncccc1N2 (stereo not given)
3. CC1=C(C#N)C23C(=O)N(c4ccccc4)C(=O)C2=C(O)C=CC3(O)N1Cc1ccc(Cl)cc1Cl (stereo not given)
4. COc1ccc(/C=N\N(C)Cc2cccc3ccsc23)cc1
5. NS(=O)(=O)c1ccc(NC(=O)N/N=C/c2ccccc2[N+](=O)[O-])cc1

Out:
30 µM
> 100 µM
11.6 µM
> 100 µM
> 100 µM
